Listed compounds paired with reported inhibition
# EXPERIMENTAL SYSTEM: Cyclin-dependent kinase 5 (Homo sapiens) (UniProt Q00535);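 further: mean value of inhibition, with the enzyme tested as CDK5/p35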
# Sequence (Q00535 whole entry, looked up): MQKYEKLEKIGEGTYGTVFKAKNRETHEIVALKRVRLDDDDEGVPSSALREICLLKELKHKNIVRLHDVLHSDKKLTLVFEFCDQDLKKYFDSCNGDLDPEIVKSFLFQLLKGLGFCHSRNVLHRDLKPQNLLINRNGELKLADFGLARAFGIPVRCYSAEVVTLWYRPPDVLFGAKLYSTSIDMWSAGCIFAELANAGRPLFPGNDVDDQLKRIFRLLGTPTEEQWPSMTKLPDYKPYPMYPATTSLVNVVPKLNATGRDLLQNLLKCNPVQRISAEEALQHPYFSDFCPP
# PROTOCOL CONDITIONS: at 1 µM
Hi! Could you send only the number? It should be in %, unit omitted.

Sample answers from the record:
C[C@@H](Oc1cc(-n2cnc3ccc(OCC4CCN(C)CC4)cc32)sc1C(N)=O)c1ccccc1Cl	3.11
COc1cc2ncn(-c3cc(OCc4cccs4)c(C(N)=O)s3)c2cc1OC	-2.03
COc1ccc2cc(-c3c(-c4ccncc4)nc(-c4ccc(S(C)(=O)=O)cc4C)n3C)ccc2c1	-0.58
C#Cc1cccc(Nc2ncnc3ccc(OCCCCNCCS(C)(=O)=O)cc23)c1	-2.83
Cc1ccc(NC(=O)c2ccoc2)cc1-c1ccc(C(=O)NCC2CC2)cc1	1.07

Attention now shifts to the item below.
Ask | Suppose we examine the compound NCc1ccc(-n2c(-c3nonc3N)nc3cnccc32)cc1 ; what inhibition value has been reported?
Reply | 11.9

---

This section presents compounds with their documented inhibition values.
# EXPERIMENTAL SYSTEM: Dual specificity tyrosine-phosphorylation-regulated kinase 2 (Homo sapiens);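 further: values are mean percent inhibition of DYRK2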
# Sequence (whole entry): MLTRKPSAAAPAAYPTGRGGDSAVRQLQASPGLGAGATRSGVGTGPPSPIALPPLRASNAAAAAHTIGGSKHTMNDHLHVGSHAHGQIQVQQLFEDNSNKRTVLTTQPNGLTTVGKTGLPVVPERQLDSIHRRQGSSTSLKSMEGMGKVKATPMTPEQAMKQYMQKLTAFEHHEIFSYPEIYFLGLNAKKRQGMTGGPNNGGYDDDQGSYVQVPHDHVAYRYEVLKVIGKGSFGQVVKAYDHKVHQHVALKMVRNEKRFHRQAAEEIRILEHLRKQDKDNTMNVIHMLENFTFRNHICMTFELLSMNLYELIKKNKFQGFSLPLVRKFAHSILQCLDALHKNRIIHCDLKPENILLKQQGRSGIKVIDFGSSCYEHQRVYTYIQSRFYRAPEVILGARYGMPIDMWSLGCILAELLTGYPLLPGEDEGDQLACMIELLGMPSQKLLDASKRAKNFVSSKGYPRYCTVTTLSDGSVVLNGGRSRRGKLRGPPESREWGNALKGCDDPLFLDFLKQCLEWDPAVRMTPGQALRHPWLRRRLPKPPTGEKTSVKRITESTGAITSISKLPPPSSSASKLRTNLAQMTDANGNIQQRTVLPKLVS
# PROTOCOL CONDITIONS: at 0.1 µM
Provide the reading as a plain figure in %.

Ask | Tell me the measured inhibition of CN(c1ccc(NC(=O)Nc2c(Cl)cccc2Cl)cc1)c1ccnc(Nc2cccc(CS(C)(=O)=O)c2)n1 , please.
Reply | 2.28

---

# EXPERIMENTAL SYSTEM: Mitogen-activated protein kinase 1 (Homo sapiens) (UniProt P28482);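 further: values are mean inhibition, from the GSK PKIS collection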
# Sequence (P28482 whole entry): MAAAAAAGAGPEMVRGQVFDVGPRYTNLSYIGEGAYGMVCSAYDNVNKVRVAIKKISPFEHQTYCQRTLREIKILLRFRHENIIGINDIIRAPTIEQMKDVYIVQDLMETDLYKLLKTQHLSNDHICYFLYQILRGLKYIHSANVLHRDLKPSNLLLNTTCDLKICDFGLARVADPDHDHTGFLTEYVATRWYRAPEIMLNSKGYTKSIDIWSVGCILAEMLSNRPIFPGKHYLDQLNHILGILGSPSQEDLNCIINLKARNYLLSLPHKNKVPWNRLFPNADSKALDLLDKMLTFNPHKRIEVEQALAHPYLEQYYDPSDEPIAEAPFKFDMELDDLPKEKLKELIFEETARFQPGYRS
# PROTOCOL CONDITIONS: at 1 µM
ENDPOINT LABEL: inhibition
Write the figure, then the unit, nothing else.

C#Cc1cccc(Nc2ncnc3ccc(OCCCCNCCS(C)(=O)=O)cc23)c1	5.46%
Fc1ccc(-c2ncn(C3CCNCC3)c2-c2ccnc(Oc3ccc4c(c3)OCO4)n2)cc1	11.4%
CN(C)CCCNc1nccc(-c2c(-c3ccc(F)cc3)nn3cc(C(F)(F)F)ccc23)n1	2.71%
C[C@@H](Oc1cc(-n2cnc3ccc(OC4CCN(C)CC4)cc32)sc1C(N)=O)c1ccccc1Cl	6.64%

Ask | Which inhibition reading was recorded for the compound Cc1ccc(C(=O)NC(C)C)cc1-c1ccc(C(=O)NCC2CC2)cc1 ?
Reply | -4.45%

Ask | Which value of inhibition has been reported for COc1cc(N2CCN(C(C)C)CC2)ccc1Nc1nc(Nc2ccc(F)cc2C(=O)NC[C@@H](O)CO)c2cc[nH]c2n1 in the records?
Reply | 7.31%

Ask | Sample CCS(=O)(=O)c1ccc(OC)c(Nc2ncc(-c3cccc(-c4ccccc4F)c3)o2)c1 — what was its inhibition?
Reply | -3.35%

Ask | Can you share its inhibition? I mean this compound: NC(=O)c1cc(-c2ccncc2)cc(-c2ccccc2)c1N
Reply | 6.15%

Ask | Entry under review: Fc1ccc(-c2nc3n(c2-c2ccncc2)CCS3)cc1 . Reported inhibition?
Reply | 5.59%

Ask | Look up inhibition: CCc1nccc2c1nc(-c1nonc1N)n2CC
Reply | 0.54%

The values you see were collected from ChEMBL document CHEMBL1961873.
